Origin of values: patent US10526326B2

- protocol-description: Solubility determination in aqueous solvents at 37° C.
- Assay type: physicochemical
- measurement-conditions: 50 mM KH2PO4 buffer, 37 °C, pH 6.8, aqueous buffer, thermodynamic from solid, 50 mM KH2PO4 (pH 6.8), 60 min
endpoint: solubility at 60 min (µg/mL)

- compound: "CC(=O)c1c(C)c2cnc(Nc3ccc(N4CCNCC4)cn3)nc2n(C2CCCC2)c1=O [Palbociclib in present crystalline Form]"
  units-label: "µg/mL"
  measured-result: 100

----------
- protocol-description: Solubility determination in organic solvents at room temperature
- Type: physicochemical
- measurement-conditions: chloroform, 23 °C, organic solvent or mixture, thermodynamic from solid, 23° C. (room temperature)
endpoint: solubility at 20 s (mg/mL)

- compound: "CC(=O)c1c(C)c2cnc(Nc3ccc(N4CCNCC4)cn3)nc2n(C2CCCC2)c1=O [Palbociclib in present crystalline Form]"
  measured-result: 86.1
